These measurements were taken from the supplement of paper PMC10567573.

B1: SMOC2 (parent)
chain: PALETQPQGDEEDIASRYPTLWTE

Variants of: B1
Experiment: protein stability index of a GFP-peptide fusion (GPS, HEK-293T) (PSI 1-6); higher = more stable;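 further: lentivirally expressed fusions sorted by FACS into six bins by GFP to DsRed ratio, PSI derived from sequencing read proportions per bin multiplied by bin number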
Conditions: c terminus: a fixed tail appended
attributeMeasured: protein stability index
Give your answer as a number; write no unit.

sequencechange=I14P attributemeasured="protein stability index" endpointresult=4.99
sequencechange=L21K attributemeasured="protein stability index" endpointresult=5.12

Kindly review the next variant as well.
Please report the measured protein stability index for `Q8E`
5.1
